Ref: PubChem BioAssay AID1159580

test: chemical genetic growth profiling, strain panel (AID 1159580);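 also: tested at 20 µM; growth read once vehicle control cultures reached saturation at 30 °C; lower values mean less growth of the strain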; details: S. cerevisiae deletion strains, growth OD, locus YBR021W, strain FUR4
Among all 5,500 compounds or so, about 2,000 (36%) were called active. Inconclusive results (about 18%) are left out. Rule as the data show it: active = normalized growth mostly below about 0.91 (no sharp cut-off); inconclusive = no clear call, values can overlap the other calls; inactive = mostly above about 0.92. Some of the results follow.
// classify into active, inactive

Compound: O=C1CC2OCC=C3CN4CC[C@]56c7ccccc7N1C5[C@H]2[C@H]3CC46 (some centres undefined)
Class: inactive

Compound: CC1(C)OC(=O)C=CC2(C)C1CC(O)C1(C)C2CCC2(C)C(c3ccoc3)OC(=O)C3OC321 (centres undefined)
Class: inactive

Compound: Nc1ccc(N=Nc2ccccc2)c(N)n1
Class: active

Now take the following compound into account.
Exercise: Tell me the recorded outcome of this test for COc1ccc2c(c1)CCC(c1ccccc1)=C2c1ccc(OCCN2CCCC2)cc1 .
Key: active
